- target_of_assay: T1, 4H883-bN
- T1 chain: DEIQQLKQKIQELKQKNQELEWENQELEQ
- experiment: two-hybrid library CCNG1;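 also: natural log of median RNA to DNA barcode read ratio; higher means stronger binding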
Catalogue of binders with associated interaction score
Returns: the value as a bare number; no unit string appended.

Look over these answered cases.
| binder | interaction score |
| --- | --- |
| DEIQQLKQENQELKQEIQELKWKIQELEQ [4H717-bN] | -0.0445 |
| DKNQQLKQKIQELEQEIQELEWENQELEQ [4H3843-bN] | -0.63 |
| DEIQQLEQEIQELKQEIQELEWKNQELKQ [4H72-bN] | 0.619 |
| DKIQQLKQEIQELEQKNQELEWEIQELKQ [4H2610-bN] | -0.137 |
| DKNAQLKQEIAELEQKNAELEWKIAQLKQ [4H3638-bA] | -2.2 |
| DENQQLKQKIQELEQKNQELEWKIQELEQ [4H1845-bN] | -0.686 |

// switching to the query binder
get_value(item= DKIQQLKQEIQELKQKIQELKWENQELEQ [4H2667-bN] , readout=interaction score) returns -0.0532
